- targetOrTestSystem: recombinant human baculovirus-expressed GST-tagged FASN (Homo sapiens, UniProt P49327)
- Construct: GST
- Sequence (P49327 whole entry): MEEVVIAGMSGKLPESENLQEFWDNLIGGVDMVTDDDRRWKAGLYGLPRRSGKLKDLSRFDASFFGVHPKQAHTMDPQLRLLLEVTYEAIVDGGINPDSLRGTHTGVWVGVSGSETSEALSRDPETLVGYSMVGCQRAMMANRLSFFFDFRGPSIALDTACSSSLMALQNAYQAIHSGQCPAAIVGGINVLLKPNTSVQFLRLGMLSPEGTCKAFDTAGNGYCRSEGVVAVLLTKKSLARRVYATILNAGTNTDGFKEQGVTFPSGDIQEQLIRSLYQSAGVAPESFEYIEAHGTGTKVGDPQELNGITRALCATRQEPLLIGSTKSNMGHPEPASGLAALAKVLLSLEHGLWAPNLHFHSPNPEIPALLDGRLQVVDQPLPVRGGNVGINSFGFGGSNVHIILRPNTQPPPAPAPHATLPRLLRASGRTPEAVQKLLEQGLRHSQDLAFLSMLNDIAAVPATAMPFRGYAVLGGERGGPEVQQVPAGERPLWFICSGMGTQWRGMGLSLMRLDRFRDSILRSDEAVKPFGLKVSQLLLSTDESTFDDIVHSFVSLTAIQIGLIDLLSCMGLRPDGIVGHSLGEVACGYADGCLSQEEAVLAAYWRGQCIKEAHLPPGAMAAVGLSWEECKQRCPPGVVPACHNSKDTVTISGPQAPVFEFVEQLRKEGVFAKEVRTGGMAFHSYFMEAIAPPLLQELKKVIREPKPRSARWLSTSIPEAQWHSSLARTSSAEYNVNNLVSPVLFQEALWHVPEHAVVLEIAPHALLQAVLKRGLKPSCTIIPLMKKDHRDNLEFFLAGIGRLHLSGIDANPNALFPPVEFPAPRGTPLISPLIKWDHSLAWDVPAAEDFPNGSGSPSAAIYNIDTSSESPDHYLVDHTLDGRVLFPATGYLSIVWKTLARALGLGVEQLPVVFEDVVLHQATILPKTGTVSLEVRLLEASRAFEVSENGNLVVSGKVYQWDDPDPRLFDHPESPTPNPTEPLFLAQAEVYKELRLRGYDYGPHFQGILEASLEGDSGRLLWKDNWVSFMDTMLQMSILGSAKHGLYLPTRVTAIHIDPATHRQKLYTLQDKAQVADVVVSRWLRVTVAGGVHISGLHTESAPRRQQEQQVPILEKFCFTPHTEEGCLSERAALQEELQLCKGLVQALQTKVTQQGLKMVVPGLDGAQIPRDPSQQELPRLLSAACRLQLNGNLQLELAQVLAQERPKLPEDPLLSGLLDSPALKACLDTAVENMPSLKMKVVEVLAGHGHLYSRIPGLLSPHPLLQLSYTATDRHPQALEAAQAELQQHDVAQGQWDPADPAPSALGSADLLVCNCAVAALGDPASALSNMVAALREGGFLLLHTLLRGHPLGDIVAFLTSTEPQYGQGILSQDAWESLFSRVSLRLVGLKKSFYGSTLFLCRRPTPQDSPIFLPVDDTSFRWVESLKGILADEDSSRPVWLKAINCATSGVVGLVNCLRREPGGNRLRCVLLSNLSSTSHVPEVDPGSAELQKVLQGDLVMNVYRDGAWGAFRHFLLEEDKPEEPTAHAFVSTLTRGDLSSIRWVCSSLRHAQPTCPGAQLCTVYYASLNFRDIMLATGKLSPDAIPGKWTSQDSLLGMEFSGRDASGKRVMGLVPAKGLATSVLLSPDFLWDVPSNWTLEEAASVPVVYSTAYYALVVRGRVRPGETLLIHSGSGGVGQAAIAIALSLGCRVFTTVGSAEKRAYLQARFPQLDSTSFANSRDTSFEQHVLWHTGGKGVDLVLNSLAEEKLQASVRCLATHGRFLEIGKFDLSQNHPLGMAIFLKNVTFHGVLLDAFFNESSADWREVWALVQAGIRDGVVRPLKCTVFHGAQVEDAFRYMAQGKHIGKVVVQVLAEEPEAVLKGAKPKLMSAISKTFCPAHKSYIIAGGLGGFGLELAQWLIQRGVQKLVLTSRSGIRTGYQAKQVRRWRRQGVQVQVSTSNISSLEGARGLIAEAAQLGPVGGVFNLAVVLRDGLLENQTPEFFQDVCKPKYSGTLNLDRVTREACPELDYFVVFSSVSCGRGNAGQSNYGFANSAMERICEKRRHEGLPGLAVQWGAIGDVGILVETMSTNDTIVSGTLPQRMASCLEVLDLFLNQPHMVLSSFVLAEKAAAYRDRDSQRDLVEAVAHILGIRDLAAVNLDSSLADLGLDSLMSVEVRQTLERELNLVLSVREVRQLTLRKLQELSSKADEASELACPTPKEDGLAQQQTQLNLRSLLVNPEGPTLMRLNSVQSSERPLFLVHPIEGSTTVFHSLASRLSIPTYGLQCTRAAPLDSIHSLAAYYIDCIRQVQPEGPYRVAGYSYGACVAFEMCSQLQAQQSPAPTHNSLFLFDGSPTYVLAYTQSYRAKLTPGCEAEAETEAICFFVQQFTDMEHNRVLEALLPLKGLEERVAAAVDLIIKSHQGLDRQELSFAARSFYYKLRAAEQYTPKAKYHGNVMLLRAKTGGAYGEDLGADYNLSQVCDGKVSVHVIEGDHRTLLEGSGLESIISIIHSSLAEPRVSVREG
- methodSummary: FASN enzyme activity assay, fluorescence-based detection of CoA with CPM
- Type: biochemical
- runParameters: 5 nM FASN, 150 μM NADPH, 10 μM acetyl-CoA, 25 μM malonyl-CoA, 90 minutes incubation; read-out: IC50 data for Compounds of Formulae I-V/V(a): Activity
- Excerpt: FASN Enzyme activity may be determined by detecting coenzyme A (CoA), a product of FASN-catalyzed synthesis of palmitate from acetyl-CoA and malonyl-CoA with NADPH as a cofactor. The assay is fluorescence-based and measures the interaction of free CoA with 7-diethylamino-3-(4′-malemimidylphenyl)-4-methylcoumarin (CPM; Life Technologies, CA) as described in Chung et al (2008). […]
Where a name gives a salt, the structure may show the parent alone.
readoutName: IC50

> print(dat)
                                    molecule  experimentalresult
 1  CCC(=O)N1CCC(Oc2ccc(-c3ccc4cnc(C)cc4c3)cc2)CC1    1000 to 10000 nM
 2  O=C(C1CC1)N1CCC(Oc2ccc(-c3cc(F)cc(OCc4ccccc4)c3)cc2)CC1    1000 to 10000 nM
 3  Cc1c(-c2ccc(OC3CCN(C(=O)C4(C)CC4)CC3)cc2)ccc2cccnc12          1 to 99 nM
 4  CCC(=O)N1CCC(Oc2ccc(-c3cc(F)cc(OCc4ccccc4)c3)cc2)CC1    1000 to 10000 nM
 5  CCC(=O)N1CCC(Oc2ccc(-c3ccc4cccnc4c3N(C)C)cc2)CC1    1000 to 10000 nM
 6  O=C(C1CCC1)N1CCC(Oc2ccc(-c3ccc(Oc4ccccc4)nc3)cc2)CC1    1000 to 10000 nM
 7  O=C(C1CC1)N1CCC(Oc2ccc(-c3cnc4ccccc4c3Cl)cc2)CC1          1 to 99 nM
 8  Cc1nc2ccc(-c3ccc(OC4CCN(C(=O)[C@H]5CCCO5)CC4)cc3)cn2c1C    1000 to 10000 nM
 9  CCC(=O)N1CCC(Oc2ccc(-c3cnc4ccccc4c3)cc2OC)CC1    1000 to 10000 nM
10  O=C([C@H]1CCCO1)N1CCC(Oc2ccc(-c3ccc4cncn4c3)cc2)CC1          1 to 99 nM
11  O=C(C1CC1)N1CCC(Oc2ccc(-c3ccc4cccnc4c3Cl)cc2F)CC1          1 to 99 nM
12  COc1cc(-c2cnc3ccccc3c2)ccc1OC1CCN(C(=O)C(C)C)CC1    1000 to 10000 nM
13  O=C(C1CC1)N1CCC(Oc2ccc(-c3cnc4ccccc4c3)nc2)CC1    1000 to 10000 nM
14  CC(C)C(=O)N1CCC(Oc2ccc(-c3ccc4cccnc4c3)cc2Cl)CC1    1000 to 10000 nM
15  Cc1c(-c2ccc(OC3CCN(C(=O)C4CC4)CC3)c(F)c2)cnc2ccccc12       100 to 999 nM
16  O=C(C1CC1)N1CCC(Oc2ccc(-c3ccc4ccccc4n3)cc2)CC1       100 to 999 nM
17  Cc1c(-c2ccc(O[C@H]3CCN(C(=O)C4CC4)C[C@H]3F)cc2)ccc2cccnc12 (relative stereo) [Example 368, HCl]    1000 to 10000 nM
18  CNc1c(-c2ccc(OC3CCN(C(=O)[C@H]4CCCO4)CC3)cc2)cnc2ccccc12       100 to 999 nM
19  O=C(C1CCC1)N1CCC(Oc2ccc(-c3cnc4ccccc4c3Cl)cc2)CC1          1 to 99 nM
20  CC(C)C(=O)N1CCC(Oc2ccc(-c3cnc4cccnc4c3)cc2)CC1    1000 to 10000 nM
21  CC(C)C(=O)N1CCC(Sc2ccc(-c3cncc4ccccc34)cc2)CC1 [Example 523, HCl]    1000 to 10000 nM
22  CCC(=O)N1CCC(Oc2ccc(-c3ccc4nc(C)c(C)n4c3)cc2)CC1    1000 to 10000 nM
23  Cc1c(-c2ccc(OC3CCN(C(=O)C4CC4)CC3)c(F)c2)ccc2cccnc12          1 to 99 nM
24  CCC(=O)N1CCC(Oc2ccc(-c3ccc4cccnc4c3OCCN3CCN(C)CC3)cc2)CC1 [Example 177, HCl]    1000 to 10000 nM
25  O=C([C@H]1CCCO1)N1CCC(Oc2ccc(-c3ccc4nnc(C(F)(F)F)n4c3)cc2)CC1    1000 to 10000 nM
26  CC(C)CC(=O)N1CC(Oc2ccc(-c3cnc4ccccc4c3)cc2)C1    1000 to 10000 nM
27  COc1cc(-c2ccc(OC3CCN(C(=O)C4CC4)CC3)cc2)cn2nccc12 [Example 411, HCl]       100 to 999 nM
28  O=C(C1CC1)N1CCC(Oc2ccc(-c3ccc4nnc(C(F)(F)F)n4c3)cc2)CC1 [Example 160, HCl]    1000 to 10000 nM
29  C[C@@H]1C[C@H](C)[C@H](C(=O)N2CCC(Oc3ccc(-c4cnc5ccccc5c4)cc3)CC2)O1 (racemic) [Example 155, HCl]    1000 to 10000 nM
30  Cc1cc(-c2cnc3ccccc3c2)ccc1OC1CCN(C(=O)C2CC2)CC1    1000 to 10000 nM
31  Cc1c(-c2ccc(OC3CCN(C(=O)NC(C)C)CC3)cc2)ccc2cccnc12    1000 to 10000 nM
32  Cc1c(-c2ccc(OC3CCN(C(=O)C4CCC4)CC3)cc2)cccc1-c1ccccn1 [Example 408, TFA salt]    1000 to 10000 nM
33  CCC(=O)N1CCC(Oc2ccc(-c3ccc4nnc(C(F)(F)F)n4c3)cc2)CC1 [Example 159, HCl]    1000 to 10000 nM
